Tested on: Hela Cells
experiment-summary: Cellular ER stress model (tunicamycin, WST-8 cell viability)
conditions-used: Homo sapiens, HeLa, 48 h, read-out: % Cell Survival Cmpd(2.5 μM) + Tuni, Hela cells, compound 2.5 μM + tunicamycin, WST-8 viability 48 hours after tunicamycin treatment
Structures can show the parent of a compound that is named as a salt.
experimental-readout: viability at 2.5 µM (%)
API: value field is a number in %; no unit string.

Take a look at these entries with their results.
O=[N+]([O-])c1cccc(Br)c1/C=N/NC1=NCCN1 [JM2-109-2, hydrochloride]: 50.2
Cc1[nH]c(N/N=C/c2c(Cl)ccc(Cl)c2Cl)nc(=O)c1C [JM3-205-2]: 20.7
Cc1cc(=O)nc(N/N=C/c2c(F)cccc2Cl)[nH]1 [JM2-203-2]: 19.7
O=C(/C=C/c1ccccc1)NC(NC(=S)Nc1cccc2cccnc12)C(Cl)(Cl)Cl (stereo not shown) [Salubrinal, reference compound]: 23.8
Cc1cccc(C)c1/C=N/NC(N)=S [JM1-121-2]: 23.4

Looking up Cc1cc(=O)nc(N/N=C/c2ccccc2Cl)[nH]1 [JM3-215-3] , I found its viability at 2.5 µM recorded as 21

Looking up Clc1cccc(Cl)c1/C=N/NC1=NCCN1 [JM2-83-2, hydrochloride] , I see its viability at 2.5 µM listed as 53.8

###

Test system: Hela Cells
experiment-summary: Cellular ER stress model (tunicamycin, WST-8 cell viability)
conditions-used: Homo sapiens, HeLa, 48 h, read-out: % Cell Survival Cmpd(2.5 μM) + Tuni, Hela cells, compound 2.5 μM + tunicamycin, WST-8 viability 48 hours after tunicamycin treatment
experimental-readout: viability at 2.5 µM (%)
Numeric answer only, unit % assumed.

Worked examples, 5 compounds total:
N=C(N)Nc1ccnn1-c1c(Cl)cccc1Cl: 41.9
Nc1ccnn1-c1c(Cl)cccc1Cl: 40.6
CN(/N=C/c1c(Cl)cccc1Cl)C(=N)N [JM3-257-2, hydroiodide]: 31.2
NC(=S)N/N=C/c1c(F)cccc1Cl: 27.6
N=C(N)N/N=C/c1ccccc1I [JM3-183-2, acetate]: 24.2

Moving on to another compound below.
Value of viability at 2.5 µM reported for the compound N=C(N)NNCc1c(Cl)cccc1Cl is 31.7

###

System: Hela Cells
experiment-summary: Cellular ER stress model (tunicamycin, WST-8 cell viability)
conditions-used: Homo sapiens, HeLa, 48 h, read-out: % Cell Survival Cmpd(2.5 μM) + Tuni, Hela cells, compound 2.5 μM + tunicamycin, WST-8 viability 48 hours after tunicamycin treatment
Counter-ions that a name gives are not always drawn.
Exam item: assign 1.0 to entries whose viability at 2.5 µM is below 40% and 0.0 to entries at or above 40%. Note that a value of exactly 40% receives 0.0.

Answered examples (5):
Cc1cc(=O)nc(N/N=C/c2cccc(Cl)c2Cl)[nH]1: 1.0
NC(=S)N/N=C/c1ccc2ccccc2c1: 1.0
Clc1cccc(/C=N/NC2=NCCCN2)c1Cl [JM3-153-2, hydrochloride]: 1.0
Fc1cccc(Cl)c1/C=N/NC1=NCCN1 [JM2-95-2, hydrochloride]: 0.0
CCc1cccc(Cl)c1/C=N/NC(=N)N [JM3-81-2, acetate]: 1.0

Does the reported viability at 2.5 µM of N=C(N)Nn1ccnc1-c1c(Cl)cccc1Cl stay below 40%?
0.0

Is viability at 2.5 µM strictly under 40% for the entry Clc1cccc(Cl)c1/C=N/NC1=NCCCN1 [JM2-255-2, hydrochloride] ?
0.0

viability at 2.5 µM strictly < 40% for this molecule? CC(C1=NCCN1)c1c(Cl)cccc1Cl (stereo not shown)
0.0
